Some compounds, each annotated with its measured IC50.
- Tested on: KRAS-mutant PDC complex spheroid viability
- Protocol Text: Anticancer human tumor 186277-243-T-J2-PDC patient-derived colon adenocarcinoma cell line growth inhibition [KRAS2]
- Test Settings: curve of first compound; second compound 3.16 µM

Compound	Experimental System	Quantity Unit	Limit Operator	IC50
Cn1ncnc1[C@H]1c2n[nH]c(=O)c3cc(F)cc(c23)N[C@@H]1c1ccc(F)cc1 + CC1OCC2(CCN(c3cnc(Sc4ccnc(N)c4Cl)c(N)n3)CC2)C1N	KRAS-mutant PDC complex spheroid viability	nM	=	18.7
Cn1nccc1Nc1nccc(-c2cc3c(s2)C(C)(C)N(CCN2CCOCC2)C3=O)n1 + C=CC(=O)N1CCN(c2nc(=O)n(-c3c(C)ccnc3C(C)C)c3nc(-c4c(O)cccc4F)c(F)cc23)C(C)C1	KRAS-mutant PDC complex spheroid viability	nM	=	289
COC(=O)c1ccc2c(C(=Nc3ccc(N(C)C(=O)CN4CCN(C)CC4)cc3)c3ccccc3)c(O)[nH]c2c1 + C=CC(=O)N1CCN(c2nc(=O)n(-c3c(C)ccnc3C(C)C)c3nc(-c4c(O)cccc4F)c(F)cc23)C(C)C1	KRAS-mutant PDC complex spheroid viability	nM	=	462
CC1(C)CCC(CN2CCN(c3ccc(C(=O)NS(=O)(=O)c4ccc(NCC5CCOCC5)c([N+](=O)[O-])c4)c(Oc4cnc5[nH]ccc5c4)c3)CC2)=C(c2ccc(Cl)cc2)C1 + CC1OCC2(CCN(c3cnc(Sc4ccnc(N)c4Cl)c(N)n3)CC2)C1N	KRAS-mutant PDC complex spheroid viability	nM	=	1750
CC(C)n1nc(-c2ccc3oc(N)nc3c2)c2c(N)ncnc21 + C=CC(=O)N1CCN(c2nc(OCC3CCCN3C)nc3c2CCN(c2cccc4cccc(C)c24)C3)CC1CC#N	KRAS-mutant PDC complex spheroid viability	nM	<	0.316

----------
- System: KRAS-mutant PDC complex spheroid viability
- Protocol Text: Anticancer human tumor 186277-243-T-J2-PDC cell line growth inhibition [KRAS2];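 as to viability, T/C: viability read after seven days of compound exposure; 100% = DMSO vehicle-treated spheroids so lower means less viable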
- Test Settings: second compound 3.16 µM; first compound 1 µM; stronger effect = lower value
Property Label: viability, T/C (%)

Compound	Reading
CC1OCC2(CCN(c3cnc(Sc4ccnc(N)c4Cl)c(N)n3)CC2)C1N (stereo not given) + C=CC(=O)N1CCN(c2nc(=O)n(-c3c(C)ccnc3C(C)C)c3nc(-c4c(O)cccc4F)c(F)cc23)C(C)C1	82.9
COc1cc2nccc(Oc3ccc(NC(=O)C4(C(=O)Nc5ccc(F)cc5)CC4)cc3)c2cc1OC + CC1OCC2(CCN(c3cnc(Sc4ccnc(N)c4Cl)c(N)n3)CC2)C1N	43.6
CC1COCCN1c1cc(-c2ccnn2C)c2ccnc(-c3ccn[nH]3)c2n1 (stereo not given) + COc1cc2nc(C)nc(NC(C)c3cc(N)cc(C(F)(F)F)c3)c2cc1OC1CCOC1	1.93
COC(=O)c1ccc2c(C(=Nc3ccc(N(C)C(=O)CN4CCN(C)CC4)cc3)c3ccccc3)c(O)[nH]c2c1 + CNCc1ccccc1-c1csc(C(C)Nc2nc(C)nc3cc(OC)c(OC)cc23)c1	0.06
COC(=O)c1ccc2c(C(=Nc3ccc(N(C)C(=O)CN4CCN(C)CC4)cc3)c3ccccc3)c(O)[nH]c2c1 + COc1cc2nc(C)nc(NC(C)c3cc(N)cc(C(F)(F)F)c3)c2cc1OC1CCOC1	72
O=C(c1cc(Cc2n[nH]c(=O)c3ccccc23)ccc1F)N1CCN(C(=O)C2CC2)CC1 + C=CC(=O)N1CCN(c2nc(OCC3CCCN3C)nc3c2CCN(c2cccc4cccc(C)c24)C3)CC1CC#N	0.26
O=C(c1cc(Cc2n[nH]c(=O)c3ccccc23)ccc1F)N1CCN(C(=O)C2CC2)CC1 + COc1cc2nc(C)nc(NC(C)c3cc(N)cc(C(F)(F)F)c3)c2cc1OC1CCOC1	110
CC(=O)OC12COC1CC(O)C1(C)C(=O)C(O)C3=C(C)C(OC(=O)C(O)C(NC(=O)OC(C)(C)C)c4ccccc4)CC(O)(C(OC(=O)c4ccccc4)C21)C3(C)C (stereo not given) + CNCc1ccccc1-c1csc(C(C)Nc2nc(C)nc3cc(OC)c(OC)cc23)c1	0.05
CC1(C)CCC(CN2CCN(c3ccc(C(=O)NS(=O)(=O)c4ccc(NCC5CCOCC5)c([N+](=O)[O-])c4)c(Oc4cnc5[nH]ccc5c4)c3)CC2)=C(c2ccc(Cl)cc2)C1 + COc1cc2nc(C)nc(NC(C)c3cc(N)cc(C(F)(F)F)c3)c2cc1OC1CCOC1	115
CCNC(=O)CC1N=C(c2ccc(Cl)cc2)c2cc(OC)ccc2-n2c(C)nnc21 (stereo not given) + CC1OCC2(CCN(c3cnc(Sc4ccnc(N)c4Cl)c(N)n3)CC2)C1N	7.45

----------
- Tested on: KRAS-mutant PDC complex spheroid viability
- Protocol Text: Anticancer human tumor 186277-243-T-J2-PDC cell line growth inhibition [KRAS2]
- Test Settings: curve of first compound; second compound 0.1 µM
pIC50: −log10 of the molar value.
So basically: pIC50 at 6 or higher? That is criterion met. Lower than 6? That is criterion not met.

Molecule	Assigned Label
Cn1nccc1Nc1nccc(-c2cc3c(s2)C(C)(C)N(CCN2CCOCC2)C3=O)n1 + COc1cc2nc(C)nc(NC(C)c3cc(N)cc(C(F)(F)F)c3)c2cc1OC1CCOC1	criterion met
CC1(C)CCC(CN2CCN(c3ccc(C(=O)NS(=O)(=O)c4ccc(NCC5CCOCC5)c([N+](=O)[O-])c4)c(Oc4cnc5[nH]ccc5c4)c3)CC2)=C(c2ccc(Cl)cc2)C1 + C=CC(=O)N1CCN(c2nc(OCC3CCCN3C)nc3c2CCN(c2cccc4cccc(C)c24)C3)CC1CC#N	criterion not met
CC1(C)CCC(CN2CCN(c3ccc(C(=O)NS(=O)(=O)c4ccc(NCC5CCOCC5)c([N+](=O)[O-])c4)c(Oc4cnc5[nH]ccc5c4)c3)CC2)=C(c2ccc(Cl)cc2)C1 + CNCc1ccccc1-c1csc(C(C)Nc2nc(C)nc3cc(OC)c(OC)cc23)c1	criterion not met
COc1cc2nccc(Oc3ccc(NC(=O)C4(C(=O)Nc5ccc(F)cc5)CC4)cc3)c2cc1OC + C=CC(=O)N1CCN(c2nc(OCC3CCCN3C)nc3c2CCN(c2cccc4cccc(C)c24)C3)CC1CC#N	criterion not met
CC1COCCN1c1cc(-c2ccnn2C)c2ccnc(-c3ccn[nH]3)c2n1 (stereo not given) + C=CC(=O)N1CCN(c2nc(=O)n(-c3c(C)ccnc3C(C)C)c3nc(-c4c(O)cccc4F)c(F)cc23)C(C)C1	criterion met
COc1cc2nccc(Oc3ccc(NC(=O)C4(C(=O)Nc5ccc(F)cc5)CC4)cc3)c2cc1OC + CNCc1ccccc1-c1csc(C(C)Nc2nc(C)nc3cc(OC)c(OC)cc23)c1	criterion not met
COC(=O)c1ccc2c(C(=Nc3ccc(N(C)C(=O)CN4CCN(C)CC4)cc3)c3ccccc3)c(O)[nH]c2c1 + CNCc1ccccc1-c1csc(C(C)Nc2nc(C)nc3cc(OC)c(OC)cc23)c1	criterion not met
CC(C)NCC(C(=O)N1CCN(c2ncnc3c2C(C)CC3O)CC1)c1ccc(Cl)cc1 (stereo not given) + C=CC(=O)N1CCN(c2nc(=O)n(-c3c(C)ccnc3C(C)C)c3nc(-c4c(O)cccc4F)c(F)cc23)C(C)C1	criterion met

----------
- Tested on: KRAS-mutant PDC complex spheroid viability
- Protocol Text: Anticancer human tumor 186277-243-T-J2-PDC cell line growth inhibition [KRAS2];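 as to viability, T/C: viability read after seven days of compound exposure; 100% = DMSO vehicle-treated spheroids so lower means less viable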
- Test Settings: second compound 0.316 µM; first compound 0.01 µM; stronger effect = lower value
- Description: Multicellular complex tumor spheroid response to RAS pathway inhibitors in combination with a targeted agents in patient-derived cell lines with oncogenic KRAS variants from multiple cancer types A high-throughput screen of multi-cell type tumor spheroids was designed to identify active combinations of targeted small molecules and KRAS pathway inhibitors. […] Compounds. […] If the clinical Cmax for an agent had not been determined, the highest concentration tested was 10 microM. […]

Compound	viability, T/C, %
CC1COCCN1c1cc(-c2ccnn2C)c2ccnc(-c3ccn[nH]3)c2n1 (stereo not given) + C=CC(=O)N1CCN(c2nc(=O)n(-c3c(C)ccnc3C(C)C)c3nc(-c4c(O)cccc4F)c(F)cc23)C(C)C1	94.6
Cn1ncnc1[C@H]1c2n[nH]c(=O)c3cc(F)cc(c23)N[C@@H]1c1ccc(F)cc1 + CC1OCC2(CCN(c3cnc(Sc4ccnc(N)c4Cl)c(N)n3)CC2)C1N	84.3
CC(=O)OC12COC1CC(O)C1(C)C(=O)C(O)C3=C(C)C(OC(=O)C(O)C(NC(=O)OC(C)(C)C)c4ccccc4)CC(O)(C(OC(=O)c4ccccc4)C21)C3(C)C (stereo not given) + C=CC(=O)N1CCN(c2nc(OCC3CCCN3C)nc3c2CCN(c2cccc4cccc(C)c24)C3)CC1CC#N	3.71
Cn1ncnc1[C@H]1c2n[nH]c(=O)c3cc(F)cc(c23)N[C@@H]1c1ccc(F)cc1 + CNCc1ccccc1-c1csc(C(C)Nc2nc(C)nc3cc(OC)c(OC)cc23)c1	89.3
CN(C)C/C=C/C(=O)Nc1cc2c(Nc3ccc(F)c(Cl)c3)ncnc2cc1O[C@H]1CCOC1 + C=CC(=O)N1CCN(c2nc(OCC3CCCN3C)nc3c2CCN(c2cccc4cccc(C)c24)C3)CC1CC#N	109
